Target: human ACC2 (Homo sapiens (Human), UniProt O00763)
Sequence (O00763 129-2458): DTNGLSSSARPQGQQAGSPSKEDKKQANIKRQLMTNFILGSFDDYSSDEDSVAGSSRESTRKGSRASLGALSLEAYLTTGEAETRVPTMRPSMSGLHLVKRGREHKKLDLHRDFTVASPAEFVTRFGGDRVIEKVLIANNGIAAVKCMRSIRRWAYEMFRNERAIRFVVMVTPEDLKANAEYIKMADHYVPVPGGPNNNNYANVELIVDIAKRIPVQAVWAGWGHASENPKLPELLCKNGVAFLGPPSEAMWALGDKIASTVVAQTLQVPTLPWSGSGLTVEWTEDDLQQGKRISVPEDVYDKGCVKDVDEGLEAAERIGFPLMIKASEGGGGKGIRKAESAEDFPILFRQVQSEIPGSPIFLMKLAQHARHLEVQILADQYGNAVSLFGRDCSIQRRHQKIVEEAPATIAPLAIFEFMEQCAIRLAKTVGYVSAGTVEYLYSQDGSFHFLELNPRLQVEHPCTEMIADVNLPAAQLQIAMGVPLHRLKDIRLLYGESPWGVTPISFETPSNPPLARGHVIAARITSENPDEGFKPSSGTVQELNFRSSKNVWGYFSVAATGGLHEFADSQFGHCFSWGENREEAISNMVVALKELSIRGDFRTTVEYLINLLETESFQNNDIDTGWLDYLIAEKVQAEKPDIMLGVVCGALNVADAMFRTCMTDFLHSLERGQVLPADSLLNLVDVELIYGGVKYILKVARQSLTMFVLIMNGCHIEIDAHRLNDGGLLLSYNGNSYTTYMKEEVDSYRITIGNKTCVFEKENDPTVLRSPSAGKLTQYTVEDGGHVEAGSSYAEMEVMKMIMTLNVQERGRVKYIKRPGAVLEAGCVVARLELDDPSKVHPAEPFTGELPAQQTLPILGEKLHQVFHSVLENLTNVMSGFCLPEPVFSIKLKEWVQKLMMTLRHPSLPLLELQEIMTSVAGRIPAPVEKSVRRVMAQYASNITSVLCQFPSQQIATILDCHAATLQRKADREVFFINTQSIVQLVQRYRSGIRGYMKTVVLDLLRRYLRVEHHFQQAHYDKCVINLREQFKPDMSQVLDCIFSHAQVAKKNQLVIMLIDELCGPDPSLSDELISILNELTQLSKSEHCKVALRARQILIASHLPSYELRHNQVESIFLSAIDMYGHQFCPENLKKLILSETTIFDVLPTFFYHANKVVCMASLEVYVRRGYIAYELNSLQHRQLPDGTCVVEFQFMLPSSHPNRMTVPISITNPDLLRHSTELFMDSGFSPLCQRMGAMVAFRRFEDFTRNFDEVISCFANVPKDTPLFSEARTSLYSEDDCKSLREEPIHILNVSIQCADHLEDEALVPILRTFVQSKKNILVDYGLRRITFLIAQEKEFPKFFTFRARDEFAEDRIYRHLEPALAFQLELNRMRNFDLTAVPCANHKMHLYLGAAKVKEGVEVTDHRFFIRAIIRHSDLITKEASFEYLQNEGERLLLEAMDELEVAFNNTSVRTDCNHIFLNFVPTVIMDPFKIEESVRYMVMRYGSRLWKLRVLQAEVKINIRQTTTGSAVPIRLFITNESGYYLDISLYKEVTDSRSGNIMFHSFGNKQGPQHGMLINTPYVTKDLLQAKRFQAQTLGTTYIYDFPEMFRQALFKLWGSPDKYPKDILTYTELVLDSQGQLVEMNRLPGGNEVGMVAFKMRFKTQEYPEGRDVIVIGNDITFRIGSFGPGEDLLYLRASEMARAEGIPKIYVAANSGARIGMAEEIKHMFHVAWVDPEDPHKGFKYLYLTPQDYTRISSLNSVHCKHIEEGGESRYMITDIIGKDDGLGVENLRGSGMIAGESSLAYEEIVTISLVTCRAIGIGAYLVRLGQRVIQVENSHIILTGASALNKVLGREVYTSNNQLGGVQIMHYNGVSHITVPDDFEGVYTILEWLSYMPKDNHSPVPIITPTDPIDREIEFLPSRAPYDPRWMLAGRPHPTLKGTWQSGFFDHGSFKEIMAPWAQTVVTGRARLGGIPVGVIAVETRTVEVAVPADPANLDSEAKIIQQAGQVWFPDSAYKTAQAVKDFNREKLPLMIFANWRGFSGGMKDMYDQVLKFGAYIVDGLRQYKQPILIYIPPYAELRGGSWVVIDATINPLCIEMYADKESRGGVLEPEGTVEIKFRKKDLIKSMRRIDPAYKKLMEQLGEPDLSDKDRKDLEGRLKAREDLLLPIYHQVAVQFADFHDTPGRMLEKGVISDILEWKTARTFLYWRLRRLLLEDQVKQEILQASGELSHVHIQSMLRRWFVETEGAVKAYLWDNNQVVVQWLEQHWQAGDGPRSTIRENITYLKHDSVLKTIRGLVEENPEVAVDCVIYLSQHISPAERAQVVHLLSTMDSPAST
Assay: ACC2 assay (spectrophotometric 384 well assay, NADH-linked coupled lactate dehydrogenase/pyruvate kinase)
Type: biochemical
Conditions: hACC2 construct lacking 128 N-terminal amino acids; 25° C., 340 nm, 15 minutes
quantity-kind: IC50 (nM)

- CC(=O)NC(C)c1ccc(OC2CN(c3ccc4c(c3)OCCO4)C2)cc1 (stereo not shown) [Example 1.2]: 240

(a) CCCOc1ccc(N2CC(Oc3ccc([C@H](C)NC(C)=O)cc3)C2)c(OC)c1 [Example 1.21]
(b) COc1cnc(N2CC(Oc3ccc([C@H](C)NC(C)=O)cc3)C2)nc1 [Example 3.2]
(c) CC(=O)N[C@@H](C)c1ccc(OC2CN(c3ncc(-c4ccc(F)cc4)cn3)C2)cc1 [Example 6.1]
## Task Sort ascending by IC50. Could you list the labels in the order requested?
## Result c, a, b

###

Biological target: human ACC2 (Homo sapiens (Human), UniProt O00763)
Assay: ACC2 assay (spectrophotometric 384 well assay, NADH-linked coupled lactate dehydrogenase/pyruvate kinase)
Type: biochemical
Settings: hACC2 construct lacking 128 N-terminal amino acids; 25° C., 340 nm, 15 minutes
pIC50: −log10 of the molar value.
quantity-kind: pIC50

Solved entries:
• CC(=O)N[C@@H](C)c1ccc(OC2CN(c3ccc4c(c3)OCCCO4)C2)cc1 [Example 1.16] = 6.35
• CC(=O)N[C@@H](C)c1ccc(OC2CN(c3ncc(C4CC4)cn3)C2)cc1 [Example 5.1] = 6.77
• CC(=O)NC(C)c1ccc(OC2CN(c3ncc(Br)cn3)C2)cc1 (centres unmarked) [Example 1.8] = 6.26
• CCOC(=O)c1cnc(N2CC(Oc3ccc([C@H](C)NC(C)=O)cc3)C2)nc1C(F)(F)F [Example 4.33] = 5.76
• CC(=O)N[C@@H](C)c1ccc(OC2CN(c3cc(Cl)ccn3)C2)cc1 [Example 4.7] = 5.46
• CC(=O)N[C@@H](C)c1ccc(OC2CN(c3cc(OC(C)C)ncn3)C2)cc1 [Example 11.2] = 4.97
• CC(=O)N[C@@H](C)c1ccc(OC2CN(c3cnc(NC4CCC4)nc3)C2)cc1 [Example 1.15] = 6.74
• CC(=O)N[C@@H](C)c1ccc(OC2CN(c3ccnc(Oc4ccccc4)c3)C2)cc1 [Example 2.8] = 5.39

(I) CCOc1ccc(N2CC(Oc3ccc([C@H](C)NC(=O)C(C)(C)OC)cc3)C2)cc1 [Example 8.36]
(II) CC(=O)N[C@@H](C)c1ccc(OC2CN(c3ccc(OCC4CC4)cc3F)C2)cc1 [Example 2.2]
(III) CCCOc1ccc(N2CC(Oc3ccc([C@H](C)NC(=O)c4cn[nH]c4)cc3)C2)c(OC)c1 [Example 8.3]
(IV) CCOc1ccc(N2CC(Oc3ccc([C@H](C)NC(=O)C4CC4)cc3)C2)cc1 [Example 2.10]
(V) CC(=O)N[C@@H](C)c1ccc(OC2CN(c3ncc4nc(-c5ccsc5)oc4n3)C2)cc1 [Example 4.26]
## Task Sort the 5 compounds by pIC50; largest first, smallest last. List the labels according to the requested ordering.
## Result II, IV, III, I, V
(II: 7.22, IV: 6.85, III: 5.96, I: 5.52, V: 4.87)

(a) CCCOc1ccc(N2CC(Oc3ccc([C@H](C)NC(C)=O)cc3)C2)cc1 [Example 1.13]
(b) CCOc1ccc(N2CC(Oc3ccc([C@H](C)NC(=O)Cc4cccnc4)cc3)C2)cc1 [Example 8.24]
(c) CC(=O)N[C@@H](C)c1ccc(OC2CN(c3ccnc(N(C)CC4CC4)n3)C2)cc1 [Example 12.2]
(d) C[C@H](NC(=O)N(C)C)c1ccc(OC2CN(c3ccc(OC4CC4)cc3)C2)cc1 [Example 1.32]
## Task Put the entries in order of pIC50, starting with the largest number. Please respond with the labels ordered as the question requires.
## Result a, d, c, b
(a: 7.15, d: 6.72, c: 6.15, b: 5.40)
